src = paper PMC7617670

I'd be grateful if you could share measured pKd for these entries.
Experimental system: T1, PabB, synthase subunit of aminodeoxychorismate synthase (ADCS) from Escherichia coli, wild type (Escherichia coli, UniProt P05041 1-453)
T1 construct: PabB, synthase subunit of ADCS, E. coli; the gene was cloned into pET28a; Form used for SEC, ITC and kinetics; TEV cleavage is told only of the proteins used for crystallization; also called wt PabB; ADCS synthase subunit; source: E. coli BL21-Gold (DE3), purified (Ni-IMAC, preparative gel filtration)
T1 sequence: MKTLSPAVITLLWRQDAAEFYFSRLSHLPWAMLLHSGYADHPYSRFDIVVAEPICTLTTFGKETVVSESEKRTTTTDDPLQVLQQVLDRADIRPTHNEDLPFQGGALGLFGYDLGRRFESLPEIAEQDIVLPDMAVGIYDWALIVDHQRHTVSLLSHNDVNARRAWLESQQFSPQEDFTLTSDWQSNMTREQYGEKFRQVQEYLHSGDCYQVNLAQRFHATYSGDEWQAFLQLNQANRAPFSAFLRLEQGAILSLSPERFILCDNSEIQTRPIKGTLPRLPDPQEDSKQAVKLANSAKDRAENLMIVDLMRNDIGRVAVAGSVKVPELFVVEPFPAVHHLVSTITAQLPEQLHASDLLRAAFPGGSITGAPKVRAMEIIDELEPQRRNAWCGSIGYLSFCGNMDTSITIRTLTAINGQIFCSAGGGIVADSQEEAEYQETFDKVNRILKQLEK
Measurement protocol: ITC; 250 μM PabB titrated into 25 μM PabA in the cell; 25 °C; 50 mM Tris/HCl pH 7.5, 50 mM KCl, 5 mM MgCl2; without Cho and Gln; one set of sites
Condition context: both partners purified
Scale: pKd equals -log10([C]), with [C] in mol/L.

### Prompt Please report the recorded pKd for PabA variant aC54A (enzyme, Escherichia coli, PabA, glutaminase subunit of ADCS, E. coli; construct as m1 with one exchange; Made by QuikChange mutagenesis from the construct of m1; source: E. coli BL21-Gold (DE3), purified (Ni-IMAC, preparative gel filtration)) MILLIDNYDSFTWNLYQYFCELGADVLVKRNDALTLADIDALKPQKIVISPGPATPDEAGISLDVIRHYAGRLPILGVCLGHQAMAQAFGGKVVRAAKVMHGKTSPITHNGEGVFRGLANPLTVTRYHSLVVEPDSLPACFDVTAWSETREIMGIRHRQWDLEGVQFHPESILSEQGHQLLANFLHR .
### Response 6.74

### Prompt Please report the recorded pKd for PabA variant aS171A (enzyme, Escherichia coli, PabA, glutaminase subunit of ADCS, E. coli; construct as m1 with one exchange; Made by QuikChange mutagenesis from the construct of m1; source: E. coli BL21-Gold (DE3), purified (Ni-IMAC, preparative gel filtration)) MILLIDNYDSFTWNLYQYFCELGADVLVKRNDALTLADIDALKPQKIVISPGPCTPDEAGISLDVIRHYAGRLPILGVCLGHQAMAQAFGGKVVRAAKVMHGKTSPITHNGEGVFRGLANPLTVTRYHSLVVEPDSLPACFDVTAWSETREIMGIRHRQWDLEGVQFHPEAILSEQGHQLLANFLHR .
### Response 6.04

### Prompt Please report the recorded pKd for PabA variant aH128A (enzyme, Escherichia coli, PabA, glutaminase subunit of ADCS, E. coli; construct as m1 with one exchange; Made by QuikChange mutagenesis from the construct of m1; source: E. coli BL21-Gold (DE3), purified (Ni-IMAC, preparative gel filtration)) MILLIDNYDSFTWNLYQYFCELGADVLVKRNDALTLADIDALKPQKIVISPGPCTPDEAGISLDVIRHYAGRLPILGVCLGHQAMAQAFGGKVVRAAKVMHGKTSPITHNGEGVFRGLANPLTVTRYASLVVEPDSLPACFDVTAWSETREIMGIRHRQWDLEGVQFHPESILSEQGHQLLANFLHR .
### Response 6.43

### Prompt Please report the recorded pKd for PabA, glutaminase subunit of aminodeoxychorismate synthase (ADCS) from Escherichia coli, wild type (enzyme, PabA, class I glutaminase subunit of ADCS, E. coli; the gene was cloned into pET28a; Form used for SEC, ITC and kinetics; TEV cleavage is told only of the proteins used for crystallization; The G5H-Tag stands between the TEV site and the start methionine of PabA; also called wt PabA; ADCS glutaminase subunit; source: E. coli BL21-Gold (DE3), purified (Ni-IMAC, preparative gel filtration)) MILLIDNYDSFTWNLYQYFCELGADVLVKRNDALTLADIDALKPQKIVISPGPCTPDEAGISLDVIRHYAGRLPILGVCLGHQAMAQAFGGKVVRAAKVMHGKTSPITHNGEGVFRGLANPLTVTRYHSLVVEPDSLPACFDVTAWSETREIMGIRHRQWDLEGVQFHPESILSEQGHQLLANFLHR .
### Response 6.80
